FYI, the data here is from patent US10774071B2.

# TESTED ON: PD-L1 (Homo sapiens (Human))
# Sequence (Q9NZQ7 19-238): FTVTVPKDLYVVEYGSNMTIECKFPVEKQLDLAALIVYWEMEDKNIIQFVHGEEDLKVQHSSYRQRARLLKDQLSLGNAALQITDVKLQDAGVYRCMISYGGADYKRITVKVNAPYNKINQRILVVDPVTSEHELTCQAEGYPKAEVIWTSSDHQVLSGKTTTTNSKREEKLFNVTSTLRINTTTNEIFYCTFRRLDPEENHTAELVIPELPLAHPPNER
# Sequence (Q9NZQ7 19-238): as above
# ASSAY PROCEDURE: PD-L1/PD-L1 dimerization biochemical protein-protein interaction assay (ALPHA)
# Type: binding
# SETTINGS: 0.5 nM His tagged PD-L1 and 0.5 nM FLAG tagged PD-L1, Table 4B, read-out: AC50 PDL1 Dimer 1 nM
Returns: string. Value is satisfied if measured AC50 is below 10 nM, and not satisfied if it is greater than or equal to it.

In plain terms, does COc1nc(-c2cccc(-c3cccc4c3CC[C@@H]4Oc3nc(OC)c(CNC4(C(=O)O)CC4)cc3C)c2Cl)ccc1CNC[C@@H]1CCC(=O)N1 [B-246] come in under 10 nM for AC50?
not satisfied

In plain terms, does COc1cc(-c2cccc(-c3cccc4c3CC[C@@H]4Oc3nc(OC)c(CN4CC[C@@H]5C[C@@]54C(=O)O)cc3C(F)(F)F)c2Cl)ccc1CNC[C@@H]1CCC(=O)N1 [B-117] come in under 10 nM for AC50?
satisfied

In plain terms, does COc1nc(-c2cccc(-c3cccc4c3CC[C@@H]4Oc3nc(OCC#N)c(CN4CC5(C(=O)O)CCC4CC5)cc3Cl)c2Cl)ccc1CNC[C@@H]1CCC(=O)N1 [B-55] come in under 10 nM for AC50?
not satisfied

In plain terms, does COc1nc(-c2cccc(-c3cccc4c3CC[C@@H]4Oc3nc(OC)c(CN[C@H]4C[C@](C)(O)C4)cc3C(F)(F)F)c2Cl)ccc1CNC[C@@H]1CCC(=O)N1 [B-263] come in under 10 nM for AC50?
satisfied

In plain terms, does COc1cc(O[C@H]2CCc3c(-c4cccc(-c5ccc(CNC[C@@H]6CCC(=O)N6)c(OC)n5)c4Cl)cccc32)c(C(F)(F)F)cc1CNCC(C)(C)C(=O)O [B-221] come in under 10 nM for AC50?
not satisfied

In plain terms, does COc1nc(-c2cccc(-c3cccc4c3CC[C@@H]4Oc3nc(OC)c(CN4C[C@@H](C)[C@H]4C(=O)O)cc3Cl)c2Cl)ccc1CNC[C@@H]1CCC(=O)N1 [B-175] come in under 10 nM for AC50?
not satisfied

In plain terms, does COc1nc(-c2cccc(-c3cccc4c3CC[C@@H]4Oc3nc(OC)c(CN4CC5(C(=O)O)CCC4CC5)nc3Cl)c2Cl)ccc1CNC[C@@H]1CCC(=O)N1 [B-153] come in under 10 nM for AC50?
not satisfied

---

# TESTED ON: PD-L1 (Homo sapiens (Human))
# ASSAY PROCEDURE: PD-L1/PD-L1 dimerization biochemical protein-protein interaction assay (ALPHA)
# Format: binding
# SETTINGS: 0.5 nM His tagged PD-L1 and 0.5 nM FLAG tagged PD-L1, Table 4B, read-out: AC50 PDL1 Dimer 1 nM
Hi there, I'd appreciate the recorded AC50 for every entry that follows.
The figure you give is taken to be in nM; do not add the unit.

Look up and report measured AC50 for this entry: COc1nc(-c2cccc(-c3cccc4c3CC[C@@H]4Oc3nc(OC)c(CN4CC[C@@H](C(=O)O)C4)nc3Br)c2Cl)cnc1CNC[C@@H]1CCC(=O)N1
28

Look up and report measured AC50 for this entry: COc1nc(O[C@H]2CCc3c(-c4cccc(-c5cc(F)c(CNC[C@@H]6CCC(=O)N6)c(OC)n5)c4Cl)cccc32)c(C(F)(F)F)cc1CN1CC[C@@H](C(=O)O)C1
12.3

Look up and report measured AC50 for this entry: COc1nc(-c2cccc(-c3cccc4c3CC[C@@H]4Oc3nc(OC)c(CN4CC[C@@H]5C[C@@]54C(=O)O)cc3C(F)(F)F)c2Cl)ccc1CN[C@H]1C[C@](C)(O)C1
120

Look up and report measured AC50 for this entry: COc1nc(-c2cccc(-c3cccc4c3CC[C@@H]4Oc3nc(OC)c(CN4CC5(C(=O)O)CCC4CC5)cc3Cl)c2Cl)ccc1CNC1CC2CCC1N2C(C)=O (stereo partly shown)
62.8

Look up and report measured AC50 for this entry: CCC1C(C(=O)O)CCN1Cc1cc(Cl)c(O[C@H]2CCc3c(-c4cccc(-c5ccc(CNC[C@@H]6CCC(=O)N6)c(OC)n5)c4Cl)cccc32)nc1OC (stereo partly shown)
19.7

Look up and report measured AC50 for this entry: COc1nc(-c2cccc(-c3cccc4c3CC[C@@H]4Oc3nc(OC)c(CNC(C)(C)CC(=O)O)cc3C(F)(F)F)c2Cl)ccc1CNC[C@@H]1CCC(=O)N1
6.31

Look up and report measured AC50 for this entry: CNC(=O)CNCc1cc(C(F)(F)F)c(O[C@H]2CCc3c(-c4cccc(-c5ccc(CNC[C@@H]6CCC(=O)N6)c(OC)n5)c4Cl)cccc32)nc1OC
36.4

Look up and report measured AC50 for this entry: CNc1nc(-c2cccc(-c3cccc4c3CC[C@@H]4Oc3nc(OC)c(CN4CC[C@@H](C(=O)O)C4)cc3Cl)c2Cl)cnc1CN1CC(C)(O)C1
31.2

Look up and report measured AC50 for this entry: COc1nc(-c2cccc(-c3cccc4c3CC[C@@H]4Oc3nc(OC)c(CN4CC[C@@H](C(=O)O)C4)cc3Cl)c2Cl)ccc1CN1CC(C)(O)C1
50.3

Look up and report measured AC50 for this entry: COc1nc(O[C@H]2CCc3c(-c4cccc(-c5ccc(CNC[C@@H]6CCC(=O)N6)c(Cl)c5)c4Cl)cccc32)c(Cl)cc1CNC1(C(=O)O)CC1
35.5
